# EXPERIMENTAL TARGET: Fes (UniProt P07332)
# Sequence (P07332 whole entry, looked up): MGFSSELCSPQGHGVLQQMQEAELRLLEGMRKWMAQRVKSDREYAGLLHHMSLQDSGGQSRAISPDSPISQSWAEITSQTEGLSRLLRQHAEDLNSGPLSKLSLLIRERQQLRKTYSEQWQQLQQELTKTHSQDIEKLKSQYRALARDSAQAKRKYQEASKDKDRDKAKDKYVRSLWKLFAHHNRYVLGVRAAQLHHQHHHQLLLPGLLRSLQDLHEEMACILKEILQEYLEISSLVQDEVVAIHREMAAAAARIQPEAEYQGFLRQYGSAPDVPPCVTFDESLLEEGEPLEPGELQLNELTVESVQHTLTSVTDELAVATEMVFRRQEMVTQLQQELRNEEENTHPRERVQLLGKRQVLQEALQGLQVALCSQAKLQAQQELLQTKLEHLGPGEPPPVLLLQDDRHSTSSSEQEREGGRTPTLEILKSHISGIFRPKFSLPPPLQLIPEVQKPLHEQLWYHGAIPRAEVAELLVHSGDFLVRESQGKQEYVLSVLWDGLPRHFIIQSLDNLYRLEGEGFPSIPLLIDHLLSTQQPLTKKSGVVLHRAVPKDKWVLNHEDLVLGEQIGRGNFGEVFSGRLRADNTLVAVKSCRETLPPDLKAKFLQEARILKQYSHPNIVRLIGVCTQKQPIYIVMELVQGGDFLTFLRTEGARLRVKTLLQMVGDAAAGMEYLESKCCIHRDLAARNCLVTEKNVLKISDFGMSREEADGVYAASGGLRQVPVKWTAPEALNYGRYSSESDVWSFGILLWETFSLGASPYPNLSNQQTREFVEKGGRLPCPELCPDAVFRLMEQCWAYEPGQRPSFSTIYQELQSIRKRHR
# METHOD DESCRIPTION: phosphorylation enrichment, bacterial display (enrichment ratio); higher = better substrate or ligand; peptides without Tyr show the background;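 also: 11-residue human phosphosite peptides and single-mutation variants displayed on the E. coli surface, counted by deep sequencing, each peptide's frequency after selection divided by its frequency in the unselected input library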;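 also: frequency after pTyr selection over input frequency; kinase dosed for 20-30% of maximal phosphorylation in three min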
ATTRIBUTE MEASURED: phosphorylation enrichment
# output: bare number, no unit

Requested field: phosphorylation enrichment. Item: KWRGQYDVAIR [BTK_Y425_K430R]
0.698

Similarly, GVRFIYTIDGS [DCX_Y105_YF] ?
1.59

Similarly, KWTVDYLSQVG [TYW5_Y48] ?
1.05

Similarly, PDSVDYRKKGY [CTSK_Y121] ?
1.08

Similarly, TACNPYKPPGP ?
0.717

Similarly, STEAIYWRYSK [SH3PXD2B_Y42_R43W] ?
1.28

Similarly, RRGTGYTLPLP [MAGEC3_Y152_S155P] ?
0.696

Similarly, GTFVIYVRFGG [FLNB_Y1687_YF] ?
1.18

Similarly, PGAPAYRVLME [MYO5A_Y1245] ?
1.29

Similarly, TDLAFYLVRKG [ASL_Y376_YF] ?
1.27

Similarly, FGMSTYITRED [FNDC3B_Y180_YF] ?
1.11

Similarly, DKATEYSQYMR [MAX_Y70_I71S] ?
0.864

Similarly, QMVGMYASSFM [AVPR2_Y124_YF] ?
1.07

Similarly, LPENPYHSRPR [NDUFA8_Y142] ?
0.632

Similarly, LTKQEYDEAGP [ACTA1_Y364_I359L] ?
1.71

Similarly, LNERHYGGLTG [PGAM2_Y92] ?
0.856

Similarly, CTTIHYNFKCN [TP53_Y234_M237K_YF] ?
0.75

Similarly, MFFSTYDRDND [FGB_Y408] ?
1.05

Similarly, IYETDYYRKGG [INSR_Y1189] ?
0.885

Similarly, GRSTFYWPSPR [GAGE12J_Y10_R13S_YF] ?
0.697

Similarly, VFLGAYDHFLP [SLC22A5_Y486_R488H_YF] ?
0.955

Similarly, RQSTLYSFFPT [MSH6_Y8_K13T] ?
1.26

Similarly, VHFLVYHHHHH [CACNA1H_Y519_H516Y_YF] ?
1.11

Similarly, FSLIHYAGIVD [MYH7_Y582] ?
0.963

Similarly, LRSKQYLRNPP [SHC1_Y315_F312S] ?
0.619

Similarly, LEQQKYTVTID [IKBKB_Y199_V203I] ?
1.57

Similarly, VDSGVYAVPPP [BCAR1_Y410] ?
0.795

Similarly, FETNVYVDKNL [PTCHD3_Y688_K685T] ?
0.938

Similarly, SSMSDYNPLEK [MYOC_Y479_I477S] ?
0.876

Similarly, KSFDMYSGDVM [FAM3D_Y122_A118S] ?
0.856

Similarly, FMCKVYSDPQP [FGFR1_Y280] ?
1.64

Similarly, SFCFRYRCAPR [SUMF1_Y344_A348P_YF] ?
0.69

Similarly, EDDIIYTQDFM [STK11_Y362_T367M] ?
1.31

Similarly, YGMQLYQKYMH [GRB14_Y347_N349K] ?
0.694

Similarly, CTTTHYNYMCN [TP53_Y234_I232T] ?
0.722

Similarly, NHFKIHNLCAE [PTEN_Y68_Y68H_YF] ?
0.642

Similarly, MFRVQYNSSVD [LRFN1_Y458_Q455R_YF] ?
0.931

Similarly, NAGAFYALSTL [FLVCR2_Y325] ?
0.764

Similarly, VVAHQYSFAPD [TNS3_Y601] ?
0.736

Similarly, WIPIQYPIISE [NOG_Y222] ?
0.807

Similarly, TQKLAYMELQQ [CENPF_Y700] ?
0.907

Similarly, CTTIHNNFMCN [TP53_Y234_Y234N_YF] ?
0.974

Similarly, LARDMYDKEYY [MET_Y1230] ?
1.43

Similarly, ELTAKYLNFFR [P3H4_Y181_Q186R_YF] ?
0.778

Similarly, GDEVEYMSVSF [GCLC_Y53_L55S] ?
1.16

Similarly, FSQETYYRVSN [ABCD1_Y180_Q178E] ?
0.812

Similarly, MCITRYERESQ [PRNP_Y218_Q217R] ?
0.813

Similarly, SLAARYFNWVS [FLT4_Y1230_YF] ?
1.26

Similarly, PVGVLYEVKVY [PTS_Y128_K129E] ?
1.67

Similarly, ALKKPYSVLYK [RPF2_Y59_G60S] ?
0.674

Similarly, MYQVQYNSSVD [LRFN1_Y458] ?
0.963

Similarly, KLNNEHLELNY [MME_Y497_Y497H] ?
0.768

Similarly, HNQDGYSFPSR [LDLR_Y845_YF] ?
1.45

Similarly, GIVEEYQLPFF [BMPR1A_Y453_YF] ?
1.35

Similarly, LSSETYVKSFT [F5_Y2149_M2148T_YF] ?
1.14

Similarly, ISNATYKQIGL [FLT1_Y199_E201Q] ?
0.582

Similarly, FNSLPYQVPTS [CALCOCO2_Y358] ?
0.63

Similarly, GIKAAYEAERG [LMNA_Y81_L85R] ?
0.755
